Source of measurements: patent US6355799B1

System: barnyardgrass (Echinochloa crus-galli, ECHCG)
Assay: Post-emerge test, greenhouse herbicide activity screening
Assay type: in vivo
Conditions: post-emerge, 250 g ai/ha, 14 days after application, rating scale 0-100
measured.parameter: phytotoxicity rating ECHCG

>>> quantitative_result("COc1c(Cl)cc(F)c(-n2c(=O)cc(C(F)(F)F)n(C)c2=O)c1NC(=O)c1ccc(Cl)cc1")
50
>>> quantitative_result("COc1c(Cl)cc(F)c(-n2c(=O)cc(C(F)(F)F)n(C)c2=O)c1NC(=O)C=Cc1ccc(Cl)cc1")
0
>>> quantitative_result("COc1c(Cl)cc(F)c(-n2c(=O)cc(C(F)(F)F)n(C)c2=O)c1NC(=O)c1ccc(Cl)c(Cl)c1")
30
>>> quantitative_result("COc1c(Cl)cc(F)c(-n2c(=O)cc(C(F)(F)F)n(C)c2=O)c1N(C(=O)c1ccc(F)c(F)c1)C(=O)c1ccc(F)c(F)c1")
0
>>> quantitative_result("Cn1c(C(F)(F)F)cc(=O)n(-c2c(F)cc(Cl)c(O)c2NC(=O)c2ncccn2)c1=O")
0
>>> quantitative_result("COc1c(Cl)cc(F)c(-n2c(=O)cc(C(F)(F)F)n(C)c2=O)c1NC(=O)c1ccc(C#N)cc1")
40
>>> quantitative_result("COc1c(Cl)cc(F)c(-n2c(=O)cc(C(F)(F)F)n(C)c2=O)c1NC(=O)OCc1ccc2c(c1)OCO2")
90

---

Below, each entry is listed alongside its reported Pre-emerge Herbicidal Activity ECHCG.
Tested on: barnyardgrass (Echinochloa crus-galli, ECHCG)
Assay: Pre-emerge test, greenhouse herbicide activity screening
Assay type: in vivo
Conditions: pre-emerge, rate 250 g ai/ha, phytotoxicity rating 0-100 at 14 days after application
measured.parameter: Pre-emerge Herbicidal Activity ECHCG

>>> result("COc1c(Cl)cc(F)c(-n2nnn(CCCF)c2=O)c1NC(=O)COCc1ccccc1 [Compound 5-28]")
60
>>> result("Cc1c(Cl)cc(F)c(-n2c(=O)cc(C(F)(F)F)n(C)c2=O)c1NC(=O)OCc1cccc([N+](=O)[O-])c1 [4-67]")
80
>>> result("Cc1c(Cl)cc(F)c(-n2c(=O)cc(C(F)(F)F)n(C)c2=O)c1NC(=O)OCc1ccco1 [4-70]")
95
>>> result("CC(C)Oc1c(Cl)cc(Cl)c(-n2nnn(CCCF)c2=O)c1N [Compound 5-16]")
0

---

Test system: lambsquarters (Chenopodium album, CHEAL)
Assay: Pre-emerge test, greenhouse herbicide activity screening
Type: in vivo
Conditions: 63 g ai/ha; phytotoxicity rating 0-100, 14 days after application
measured.parameter: Pre-emerge Herbicidal Activity CHEAL

>>> quantitative_result("CCCCCC(=O)Nc1c(OC)c(Cl)cc(F)c1-n1c(=O)cc(C(F)(F)F)n(C)c1=O [2-198]")
100
>>> quantitative_result("COc1c(Cl)cc(F)c(-n2c(=O)cc(C(F)(F)F)n(C)c2=O)c1NC(=O)Oc1ccccc1C(C)(C)C [4-27]")
80
>>> quantitative_result("COc1c(Cl)cc(F)c(-n2c(=O)cc(C(F)(F)F)n(C)c2=O)c1NC(=O)OCc1ccc2ccccc2c1 [4-28]")
70
>>> quantitative_result("Cn1c(C(F)(F)F)cc(=O)n(-c2ccc(Cl)cc2NC(=O)OCc2ccccc2F)c1=O [4-49]")
100
>>> quantitative_result("COc1c(Cl)cc(F)c(-n2c(=O)cc(C(F)(F)F)n(C)c2=O)c1NC(=O)OCc1ccc2c(c1)OCO2 [4-41]")
100
>>> quantitative_result("COc1c(Cl)cc(F)c(-n2c(=O)cc(C(F)(F)F)n(C)c2=O)c1NC(=O)OCc1cc(C)cc(C)c1 [4-37]")
100
>>> quantitative_result("COc1c(Cl)cc(F)c(-n2c(=O)cc(C(F)(F)F)n(C)c2=O)c1NC(=O)OCc1c(F)cccc1F [4-29]")
100
>>> quantitative_result("COc1c(Cl)cc(F)c(-n2c(=O)cc(C(F)(F)F)n(C)c2=O)c1NC(=O)OCc1cccc(F)c1 [4-44]")
100
